- assayed target: T1, wild type full length EGFR purified from A431 cells (human, UniProt P00533 25-1210)
- T1 construct: mature; Bought; coated on ELISA wells; also called full length EGFR receptor antigen; Sigma E3641
- assay summary: competition ELISA, competitor Ab-11
- Set-up: concentration or dose not given beside the values
assay endpoint: % inhibition (%)
Give your result in % as a bare value.

Reported % inhibition of antibody 1320 (antibody, human IgG1, kappa, V domains shown, Chimeric IgG1 kappa) VH: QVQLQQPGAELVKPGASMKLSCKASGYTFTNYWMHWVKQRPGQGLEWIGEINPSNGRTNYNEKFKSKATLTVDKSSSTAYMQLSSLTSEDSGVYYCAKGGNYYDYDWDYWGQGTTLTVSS VL: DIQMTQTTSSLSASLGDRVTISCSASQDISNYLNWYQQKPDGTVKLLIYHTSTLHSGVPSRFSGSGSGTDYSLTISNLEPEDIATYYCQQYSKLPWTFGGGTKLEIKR : 8
